B1: Kinesin-like protein KIF16B, residues 1213 to 1273; numbered along this chain, Q96L93 (parent)
chain: ETWTVFRRYSRFREMHKTLKLKYAELAALEFPPKKLFGNKDERVIAERRSHLEKYLRDFFS

- Variants of: B1
- assayMethodText: abundance fitness (aPCA) (normalised: wild type 0, dead -1); higher = more abundant; growth selection in yeast, the domain comes from the species named
- conditionSet: Homo sapiens
Grouping by measured abundance fitness is done with the following cut points: lo: < -0.2; mid: ≥ -0.2 and < -0.02; hi: ≥ -0.02

sequence | classLabel
ENWTVFRRYSRFREMHKTLKLKYAELAALEFPPKKLFGNKDERVIAERRSHLEKYLRDFFS | lo
ETITVFRRYSRFREMHKTLKLKYAELAALEFPPKKLFGNKDERVIAERRSHLEKYLRDFFS | lo
ETWTVFRRYSRFREMHKTLKLKYAELAALEFPPKKRFGNKDERVIAERRSHLEKYLRDFFS | lo
ETWTVFRRYSRFREMHKTLKLKYAELAALEFPPKKLFGNKDERYIAERRSHLEKYLRDFFS | lo
ETWTVFRRYSRFREMHKTLKLKYAELAAREFPPKKLFGNKDERVIAERRSHLEKYLRDFFS | mid
ETWTVFRRYSRFREMHKTLKLKYAELAALNFPPKKLFGNKDERVIAERRSHLEKYLRDFFS | hi
ETWTVFRRYSRFREMHKTLKLKYAELAALEFPPKKLFGNKDERVIAERRSHLEKYLRGFFS | hi
ETYTVFRRYSRFREMHKTLKLKYAELAALEFPPKKLFGNKDERVIAERRSHLEKYLRDFFS | lo
ETWTSFRRYSRFREMHKTLKLKYAELAALEFPPKKLFGNKDERVIAERRSHLEKYLRDFFS | mid
ETWTVFRRYSRFREMHKTLKLKYAELAALEFPPKKLFGNKDERVLAERRSHLEKYLRDFFS | hi
ETWTVFRRYSRFREMHKTLKLKYAELAALEFPPKKLFGNKDERVIAERRSHLEKYLRDRFS | lo
ETWTVFRRYSRFREMHKTLKLKYAELAALEFPPKKLFGNKDERVIAERRSHLEKYLRDFFN | lo
ETWTVFRRYSRFREMHKTLKLKYAELAAWEFPPKKLFGNKDERVIAERRSHLEKYLRDFFS | hi
ETWTVFVRYSRFREMHKTLKLKYAELAALEFPPKKLFGNKDERVIAERRSHLEKYLRDFFS | mid
ETWTLFRRYSRFREMHKTLKLKYAELAALEFPPKKLFGNKDERVIAERRSHLEKYLRDFFS | hi
ETWTVFRRYSRFREMHKTLKLKYAELAALEFPPKKLFGNKPERVIAERRSHLEKYLRDFFS | mid
ETWTVFRRYSRFREMHKTLKLKYAELAALEFLPKKLFGNKDERVIAERRSHLEKYLRDFFS | hi
ETWTVFRRYSRFREMHKTLKLKYAFLAALEFPPKKLFGNKDERVIAERRSHLEKYLRDFFS | lo
ETWTVFRRYARFREMHKTLKLKYAELAALEFPPKKLFGNKDERVIAERRSHLEKYLRDFFS | mid
ETWTVFRRYSRFREMHKTLKLKYAELAALEFPPKKLFGNKDERVDAERRSHLEKYLRDFFS | hi
ETWTVFRRRSRFREMHKTLKLKYAELAALEFPPKKLFGNKDERVIAERRSHLEKYLRDFFS | lo
ETWTVFRRYSRFREMHKTLKLKYAELAALEFPPKKLFGNKDERVIAERREHLEKYLRDFFS | lo
